System: cancer stem cells
assay_explanation: Survival rate of cancer stem cells after test compound is added (flow cytometry, Annexin V-FITC/PI, clinical specimen)
Assay type: cell-based, patient
study_conditions: Homo sapiens, 18 h, Brain tumor; 20.0 μM
observed_property: viability at 20 µM (%)
Number in %, nothing else.

Example results:
C=C1CC[C@H]2C(=C)CC[C@H]3C(=C)C(=O)O[C@@H]3[C@@H]12 ... 66
C=C1C(=O)O[C@@H]2[C@H]3C(C)=CC[C@@]34O[C@@]4(C)CC[C@@H]12 ... 54
[2H][C@@]1(CN(C)C)C(=O)O[C@@H]2[C@@H]3[C@@H](CCC34CC4)C3(CC[C@H]21)CC3 ... 81
C=C1C(=O)O[C@@H]2[C@@H]3[C@@H](CCC34CC4)C3(CC[C@@H]12)CC3 ... 73
C=C1C(=O)O[C@@H]2[C@@H]3[C@@H](CC[C@@]3(C)O)[C@](C)(O)CC[C@@H]12 ... 79
CC1=C2CC[C@@](C)(O)[C@@H]2[C@H]2OC(=O)[C@@H](CN(C)C)[C@@H]2CC1 ... 73
C=C1C(=O)O[C@@H]2[C@@H]3[C@@H](CC[C@@]3(C)O)C(=C)CC[C@@H]12 ... 53

The molecule identified as C=C1C(=O)O[C@H]2[C@H]1CC[C@@](C)(OC)C1CC[C@@](C)(O)[C@@H]12 (some centres unmarked) registered its viability at 20 µM at 75
